Target system: Adrenergic receptor alpha-1 (Rattus norvegicus) (UniProt P15823+P23944+P43140)
Protocol notes: Antagonistic activity against alpha-1 adrenergic receptor in rat cerebral cortex using [3H]prazosin as radioligand.
Format: functional, tissue-based
Please assign a class to every record based on measured K2, with ranges lower bin = under 20 nM, middle bin = from 20 nM up to 500 nM, upper bin = 500 nM and over

CCCOC(=O)c1ccccc1N1CCN(CCCCN2CC(=O)N3CCCCC3C2=O)CC1 (stereo unspecified) ... middle bin
CCCNC(=O)c1ccccc1N1CCN(CCCN2C(=O)C3CCCN3C2=O)CC1 (stereo unspecified) ... upper bin
N#Cc1ccccc1N1CCN(CCCN2C(=O)C3CCCCN3C2=O)CC1 (stereo unspecified) ... lower bin
CC(C)C(=O)Nc1cccc(N2CCN(CCCN3CC(=O)N4CCCC4C3=O)CC2)c1 (stereo unspecified) ... upper bin
CC(C)C(=O)Nc1cccc(N2CCN(CCCN3C(=O)C4CCCCN4C3=O)CC2)c1 (stereo unspecified) ... upper bin
O=C1C2CCCN2C(=O)N1CCCN1CCN(c2cccc(Br)c2)CC1 (stereo unspecified) ... middle bin
CCCOC(=O)c1ccccc1N1CCN(CCCN2C(=O)C3CCCCN3C2=O)CC1 (stereo unspecified) ... lower bin
Cc1ccccc1N1CCN(CCCN2C(=O)C3CCCCN3C2=O)CC1 (stereo unspecified) ... lower bin
CCCNC(=O)c1ccccc1N1CCN(CCCCN2C(=O)C3CCCCN3C2=O)CC1 (stereo unspecified) ... upper bin
O=C1C2CCCN2C(=O)CN1CCCCN1CCN(c2ccccc2C(F)(F)F)CC1 (stereo unspecified) ... middle bin
Nc1cccc(N2CCN(CCCCN3C(=O)C4CCCCN4C3=O)CC2)c1 (stereo unspecified) ... middle bin

* * *

Target system: Adrenergic receptor alpha-1 (Rattus norvegicus) (UniProt P15823+P23944+P43140)
Protocol notes: Antagonistic activity against alpha-1 adrenergic receptor in rat cerebral cortex using [3H]prazosin as radioligand.
Format: functional, tissue-based
Measurement type: pK2

CCCOC(=O)c1ccccc1N1CCN(CCCN2C(=O)C3CCCCN3C2=O)CC1 (stereo not given) ... 7.89
N#Cc1ccccc1N1CCN(CCCCN2C(=O)C3CCCN3C2=O)CC1 (stereo not given) ... 8.31
O=C1C2CCCCN2C(=O)N1CCCCN1CCN(c2cccc(Br)c2)CC1 (stereo not given) ... 8.23
Cc1ccccc1N1CCN(CCCCN2CC(=O)N3CCCCC3C2=O)CC1 (stereo not given) ... 7.56
CCCCOc1ccccc1N1CCN(CCCN2C(=O)C3CCCN3C2=O)CC1 (stereo not given) ... 8.19
CCCOC(=O)c1ccccc1N1CCN(CCCN2CC(=O)N3CCCC3C2=O)CC1 (stereo not given) ... 7.93
CCCOC(=O)c1ccccc1N1CCN(CCCCN2CC(=O)N3CCCCC3C2=O)CC1 (stereo not given) ... 6.41
CC(C)C(=O)Nc1cccc(N2CCN(CCCCN3CC(=O)N4CCCCC4C3=O)CC2)c1 (stereo not given) ... 4.79
CCCNC(=O)c1ccccc1N1CCN(CCCCN2CC(=O)N3CCCC3C2=O)CC1 (stereo not given) ... 5.87
O=C1C2CCCCN2C(=O)CN1CCCN1CCN(c2ccccc2C(F)(F)F)CC1 (stereo not given) ... 6.47

* * *

Target system: 5-hydroxytryptamine receptor 1A (Rattus norvegicus)
Protocol notes: Antagonistic activity against 5-hydroxytryptamine 1A receptor in rat cerebral cortex using [3H]8-OH-DPAT as radioligand.
Type: functional, tissue-based
Under this convention, true denotes K1 strictly below 70 nM and false denotes K1 at or above 70 nM.

CC(C)C(=O)Nc1cccc(N2CCN(CCCN3CC(=O)N4CCCC4C3=O)CC2)c1 (configuration not stated) ... false
N#Cc1ccccc1N1CCN(CCCCN2C(=O)C3CCCN3C2=O)CC1 (configuration not stated) ... true
O=C1C2CCCN2C(=O)CN1CCCCN1CCN(c2ccccc2C(F)(F)F)CC1 (configuration not stated) ... true
N#Cc1ccccc1N1CCN(CCCCN2CC(=O)N3CCCCC3C2=O)CC1 (configuration not stated) ... true
N#Cc1ccccc1N1CCN(CCCN2CC(=O)N3CCCC3C2=O)CC1 (configuration not stated) ... true
CCCNC(=O)c1ccccc1N1CCN(CCCN2C(=O)C3CCCN3C2=O)CC1 (configuration not stated) ... false
CCCNC(=O)c1ccccc1N1CCN(CCCN2CC(=O)N3CCCCC3C2=O)CC1 (configuration not stated) ... false
O=C1C2CCCN2C(=O)N1CCCN1CCN(c2cccc(Br)c2)CC1 (configuration not stated) ... true
CCCCOc1ccccc1N1CCN(CCCN2C(=O)C3CCCN3C2=O)CC1 (configuration not stated) ... true
Cc1ccccc1N1CCN(CCCN2CC(=O)N3CCCC3C2=O)CC1 (configuration not stated) ... true
CCCOC(=O)c1ccccc1N1CCN(CCCN2C(=O)C3CCCCN3C2=O)CC1 (configuration not stated) ... true
CCCCOc1ccccc1N1CCN(CCCN2CC(=O)N3CCCCC3C2=O)CC1 (configuration not stated) ... false
CCCNC(=O)c1ccccc1N1CCN(CCCCN2C(=O)C3CCCCN3C2=O)CC1 (configuration not stated) ... false
Cc1ccccc1N1CCN(CCCCN2CC(=O)N3CCCC3C2=O)CC1 (configuration not stated) ... true
N#Cc1ccccc1N1CCN(CCCN2C(=O)C3CCCCN3C2=O)CC1 (configuration not stated) ... true
CCCOC(=O)c1ccccc1N1CCN(CCCCN2CC(=O)N3CCCCC3C2=O)CC1 (configuration not stated) ... true
Cc1ccccc1N1CCN(CCCCN2CC(=O)N3CCCCC3C2=O)CC1 (configuration not stated) ... true
O=C1C2CCCCN2C(=O)N1CCCCN1CCN(c2cccc(Br)c2)CC1 (configuration not stated) ... true
CC(C)C(=O)Nc1cccc(N2CCN(CCCCN3CC(=O)N4CCCCC4C3=O)CC2)c1 (configuration not stated) ... false
CC(C)C(=O)Nc1cccc(N2CCN(CCCN3C(=O)C4CCCCN4C3=O)CC2)c1 (configuration not stated) ... false
Cc1ccccc1N1CCN(CCCN2CC(=O)N3CCCCC3C2=O)CC1 (configuration not stated) ... false

* * *

In this section we review reported pK1 values for a set of compounds.
Target system: UniProt P19327
Sequence (P19327 whole entry): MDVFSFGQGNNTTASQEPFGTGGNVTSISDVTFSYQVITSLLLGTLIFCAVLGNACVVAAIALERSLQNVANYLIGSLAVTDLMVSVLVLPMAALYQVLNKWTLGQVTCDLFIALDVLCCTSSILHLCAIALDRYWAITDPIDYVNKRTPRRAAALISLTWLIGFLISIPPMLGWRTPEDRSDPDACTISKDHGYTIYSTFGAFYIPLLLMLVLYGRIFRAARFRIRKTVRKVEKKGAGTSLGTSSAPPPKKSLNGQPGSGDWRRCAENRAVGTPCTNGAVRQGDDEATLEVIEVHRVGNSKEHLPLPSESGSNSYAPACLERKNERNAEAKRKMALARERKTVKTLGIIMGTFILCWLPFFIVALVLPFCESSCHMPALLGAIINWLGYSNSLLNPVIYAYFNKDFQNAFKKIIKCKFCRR
Protocol notes: Antagonistic activity against 5-hydroxytryptamine 1A receptor in rat cerebral cortex using [3H]-8-OH-DPAT as radioligand.
Format: functional, tissue-based
Measurement type: pK1

Nc1cccc(N2CCN(CCCN3C(=O)C4CCCN4C3=O)CC2)c1 (stereo not given) ... 5.93
Cc1ccccc1N1CCN(CCCCN2C(=O)C3CCCN3C2=O)CC1 (stereo not given) ... 7.78
CCCCOc1ccccc1N1CCN(CCCCN2C(=O)C3CCCCN3C2=O)CC1 (stereo not given) ... 8.66
Nc1cccc(N2CCN(CCCCN3C(=O)C4CCCCN4C3=O)CC2)c1 (stereo not given) ... 7.17
CCCOC(=O)c1ccccc1N1CCN(CCCCN2CC(=O)N3CCCCC3C2=O)CC1 (stereo not given) ... 7.55
N#Cc1ccccc1N1CCN(CCCCN2C(=O)C3CCCN3C2=O)CC1 (stereo not given) ... 8.4
O=C1C2CCCCN2C(=O)N1CCCCN1CCN(c2cccc(Br)c2)CC1 (stereo not given) ... 8.27
CCCCOc1ccccc1N1CCN(CCCCN2CC(=O)N3CCCC3C2=O)CC1 (stereo not given) ... 8.06
O=C1C2CCCCN2C(=O)CN1CCCN1CCN(c2ccccc2C(F)(F)F)CC1 (stereo not given) ... 6.75
CC(C)C(=O)Nc1cccc(N2CCN(CCCN3CC(=O)N4CCCC4C3=O)CC2)c1 (stereo not given) ... 6.57

* * *

Target system: Adrenergic receptor alpha-1 (Rattus norvegicus) (UniProt P15823+P23944+P43140)
Protocol notes: Antagonistic activity against alpha-1 adrenergic receptor in rat cerebral cortex using [3H]prazosin as radioligand.
Type: functional, tissue-based
Measurement type: K2 (nM)

CCCCOc1ccccc1N1CCN(CCCN2C(=O)C3CCCN3C2=O)CC1 (stereo not given) ... 6.4
Cc1ccccc1N1CCN(CCCN2CC(=O)N3CCCCC3C2=O)CC1 (stereo not given) ... 29
CCCOC(=O)c1ccccc1N1CCN(CCCN2CC(=O)N3CCCC3C2=O)CC1 (stereo not given) ... 12
O=C1C2CCCCN2C(=O)CN1CCCN1CCN(c2ccccc2C(F)(F)F)CC1 (stereo not given) ... 339
CC(C)C(=O)Nc1cccc(N2CCN(CCCCN3CC(=O)N4CCCCC4C3=O)CC2)c1 (stereo not given) ... 16100

* * *

Target system: Adrenergic receptor alpha-1 (Rattus norvegicus) (UniProt P15823+P23944+P43140)
Protocol notes: Antagonistic activity against alpha-1 adrenergic receptor in rat cerebral cortex using [3H]prazosin as radioligand.
Format: functional, tissue-based
Measurement type: pK2

Cc1ccccc1N1CCN(CCCN2C(=O)C3CCCCN3C2=O)CC1 (stereo not given) ... 8.25
CCCNC(=O)c1ccccc1N1CCN(CCCCN2C(=O)C3CCCCN3C2=O)CC1 (stereo not given) ... 6.28
Nc1cccc(N2CCN(CCCN3C(=O)C4CCCN4C3=O)CC2)c1 (stereo not given) ... 6.41
CCCNC(=O)c1ccccc1N1CCN(CCCN2C(=O)C3CCCN3C2=O)CC1 (stereo not given) ... 6.22
O=C1C2CCCN2C(=O)CN1CCCCN1CCN(c2ccccc2C(F)(F)F)CC1 (stereo not given) ... 7.14

Value source: ChEMBL document CHEMBL1136176
